Recorded residual activity by entry
# target_under_test: Protein-tyrosine kinase 6 (Homo sapiens) (UniProt Q13882)
# Sequence (Q13882 whole entry, looked up): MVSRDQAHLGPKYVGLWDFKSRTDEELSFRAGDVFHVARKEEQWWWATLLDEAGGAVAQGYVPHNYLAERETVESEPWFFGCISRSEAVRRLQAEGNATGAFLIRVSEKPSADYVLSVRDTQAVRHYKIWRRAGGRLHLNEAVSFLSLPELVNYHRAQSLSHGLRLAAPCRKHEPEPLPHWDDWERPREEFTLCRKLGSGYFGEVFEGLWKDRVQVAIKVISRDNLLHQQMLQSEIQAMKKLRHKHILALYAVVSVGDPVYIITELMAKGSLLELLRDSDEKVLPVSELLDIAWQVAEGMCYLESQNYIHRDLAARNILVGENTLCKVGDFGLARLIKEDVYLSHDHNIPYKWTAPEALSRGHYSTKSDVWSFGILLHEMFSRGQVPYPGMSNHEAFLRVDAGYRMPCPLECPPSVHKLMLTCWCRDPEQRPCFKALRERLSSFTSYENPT
# run_parameters: at 10 µM
Quick note: give the figure in %, leave out the unit.

// worked examples, residual activity included
compound | target_under_test | residual activity (%)
CO[C@H]1C[C@@H]2CC[C@@H](C)[C@@](O)(O2)C(=O)C(=O)N2CCCC[C@H]2C(=O)O[C@H]([C@H](C)C[C@@H]2CC[C@@H](O)[C@H](OC)C2)CC(=O)[C@H](C)/C=C(\C)[C@@H](O)[C@@H](OC)C(=O)[C@H](C)C[C@H](C)/C=C/C=C/C=C/1C | Protein-tyrosine kinase 6 (Homo sapiens) (UniProt Q13882) | 102
CCOc1cc2ncnc(Nc3cccc(Br)c3)c2cc1OCC | Protein-tyrosine kinase 6 (Homo sapiens) (UniProt Q13882) | 2
COc1ccc(OC)c2c(=S)c3ccccc3[nH]c12 | Protein-tyrosine kinase 6 (Homo sapiens) (UniProt Q13882) | 104

INPUT: Write down the reported residual activity of Cc1cc(Nc2nc(-c3ccccc3)nc3ccccc23)n[nH]1 , test system: Protein-tyrosine kinase 6 (Homo sapiens) (UniProt Q13882).
OUTPUT: 4

INPUT: Write down the reported residual activity of O=C(Nc1cccc(Nc2nccc(Nc3cccc(C(F)(F)F)c3)n2)c1)C1CC1 , test system: Protein-tyrosine kinase 6 (Homo sapiens) (UniProt Q13882).
OUTPUT: 46

INPUT: Write down the reported residual activity of O=C1c2ccccc2-[n+]2ccc3c([nH]c4ccccc43)c21 , test system: Protein-tyrosine kinase 6 (Homo sapiens) (UniProt Q13882).
OUTPUT: 80

----------
# target_under_test: Tyrosine-protein kinase Lyn (Homo sapiens)
# run_parameters: at 1 µM
Reported residual activity maps to class as: LOW: < 20%; MEDIUM: ≥ 20% and < 80%; HIGH: ≥ 80%

# example entries with known answers
smiles_entry | group
CCN(CC)CCCCN1c2ccccc2Oc2ccc(Cl)cc21 | HIGH
O=C1NC(=O)c2c1c1c3ccccc3[nH]c1c1[nH]c3cc(Br)ccc3c21 | MEDIUM
O=C1c2ccccc2-[n+]2ccc3c([nH]c4ccccc43)c21 | HIGH

Please find the next compound below.
INPUT: // bin(item) where item = O=Nc1c(-c2c(O)[nH]c3ccccc23)[nH]c2ccccc12
OUTPUT: LOW

----------
# target_under_test: Myosin light chain kinase, smooth muscle (Homo sapiens) (UniProt Q15746)
# Sequence (Q15746 whole entry): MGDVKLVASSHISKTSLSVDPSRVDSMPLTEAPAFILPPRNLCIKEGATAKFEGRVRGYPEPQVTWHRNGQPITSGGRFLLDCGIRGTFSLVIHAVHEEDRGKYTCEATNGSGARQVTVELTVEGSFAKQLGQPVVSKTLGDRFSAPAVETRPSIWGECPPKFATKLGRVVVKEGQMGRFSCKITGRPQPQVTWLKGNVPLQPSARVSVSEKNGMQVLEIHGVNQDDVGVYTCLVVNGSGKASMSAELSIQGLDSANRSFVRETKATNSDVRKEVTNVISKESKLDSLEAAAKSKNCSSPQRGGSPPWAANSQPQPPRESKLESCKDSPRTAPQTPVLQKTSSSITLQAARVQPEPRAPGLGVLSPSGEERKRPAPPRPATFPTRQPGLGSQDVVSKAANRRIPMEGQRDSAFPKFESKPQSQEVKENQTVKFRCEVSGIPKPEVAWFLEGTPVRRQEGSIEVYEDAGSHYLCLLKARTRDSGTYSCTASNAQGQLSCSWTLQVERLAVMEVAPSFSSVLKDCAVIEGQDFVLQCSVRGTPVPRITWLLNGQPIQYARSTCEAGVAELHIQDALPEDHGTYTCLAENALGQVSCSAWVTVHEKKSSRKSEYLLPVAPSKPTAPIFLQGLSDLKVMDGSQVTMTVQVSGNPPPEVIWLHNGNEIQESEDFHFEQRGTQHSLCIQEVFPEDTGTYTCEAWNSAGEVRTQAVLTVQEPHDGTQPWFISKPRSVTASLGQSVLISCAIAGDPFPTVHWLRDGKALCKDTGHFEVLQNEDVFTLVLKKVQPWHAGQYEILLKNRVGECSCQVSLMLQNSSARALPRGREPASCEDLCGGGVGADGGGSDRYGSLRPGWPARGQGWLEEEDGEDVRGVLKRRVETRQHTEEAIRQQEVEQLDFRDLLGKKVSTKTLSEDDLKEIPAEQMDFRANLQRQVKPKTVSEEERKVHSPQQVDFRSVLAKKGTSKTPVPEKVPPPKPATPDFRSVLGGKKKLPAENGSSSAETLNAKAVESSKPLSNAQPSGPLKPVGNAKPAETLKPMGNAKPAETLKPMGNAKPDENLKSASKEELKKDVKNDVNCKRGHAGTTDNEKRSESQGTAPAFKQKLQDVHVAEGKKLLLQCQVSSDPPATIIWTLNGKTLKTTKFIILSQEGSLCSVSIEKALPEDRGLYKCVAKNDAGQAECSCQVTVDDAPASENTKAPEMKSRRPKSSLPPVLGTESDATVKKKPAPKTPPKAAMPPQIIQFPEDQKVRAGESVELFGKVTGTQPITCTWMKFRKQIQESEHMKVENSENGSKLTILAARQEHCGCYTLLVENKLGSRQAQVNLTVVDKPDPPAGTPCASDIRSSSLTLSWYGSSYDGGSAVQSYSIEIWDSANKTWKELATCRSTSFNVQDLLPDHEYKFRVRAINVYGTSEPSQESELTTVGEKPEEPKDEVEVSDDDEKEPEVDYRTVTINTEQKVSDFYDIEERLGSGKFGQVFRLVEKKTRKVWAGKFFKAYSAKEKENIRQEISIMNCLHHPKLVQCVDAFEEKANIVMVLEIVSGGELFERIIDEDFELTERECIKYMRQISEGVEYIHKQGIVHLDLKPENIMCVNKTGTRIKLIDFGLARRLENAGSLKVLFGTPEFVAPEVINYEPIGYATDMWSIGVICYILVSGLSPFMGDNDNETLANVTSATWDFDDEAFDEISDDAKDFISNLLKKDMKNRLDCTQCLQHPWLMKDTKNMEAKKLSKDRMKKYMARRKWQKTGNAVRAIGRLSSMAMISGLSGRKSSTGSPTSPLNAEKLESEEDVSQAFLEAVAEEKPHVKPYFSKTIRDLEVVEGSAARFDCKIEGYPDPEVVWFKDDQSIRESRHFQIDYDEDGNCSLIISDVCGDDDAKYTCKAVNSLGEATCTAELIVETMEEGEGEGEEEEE
# run_parameters: at 1 µM
experimental_readout: residual activity (%)
Quick note: give the figure in %, leave out the unit.

INPUT: Return reported residual activity; argument: c1ccc2c(-c3ccncc3)c[nH]c2c1
OUTPUT: 72

INPUT: Return reported residual activity; argument: Cc1cncc2cccc(S(=O)(=O)N3CCCN(C(=O)CN)C[C@H]3C)c12
OUTPUT: 94

----------
# target_under_test: Serine/threonine-protein kinase NLK (Homo sapiens)
# Sequence (whole entry): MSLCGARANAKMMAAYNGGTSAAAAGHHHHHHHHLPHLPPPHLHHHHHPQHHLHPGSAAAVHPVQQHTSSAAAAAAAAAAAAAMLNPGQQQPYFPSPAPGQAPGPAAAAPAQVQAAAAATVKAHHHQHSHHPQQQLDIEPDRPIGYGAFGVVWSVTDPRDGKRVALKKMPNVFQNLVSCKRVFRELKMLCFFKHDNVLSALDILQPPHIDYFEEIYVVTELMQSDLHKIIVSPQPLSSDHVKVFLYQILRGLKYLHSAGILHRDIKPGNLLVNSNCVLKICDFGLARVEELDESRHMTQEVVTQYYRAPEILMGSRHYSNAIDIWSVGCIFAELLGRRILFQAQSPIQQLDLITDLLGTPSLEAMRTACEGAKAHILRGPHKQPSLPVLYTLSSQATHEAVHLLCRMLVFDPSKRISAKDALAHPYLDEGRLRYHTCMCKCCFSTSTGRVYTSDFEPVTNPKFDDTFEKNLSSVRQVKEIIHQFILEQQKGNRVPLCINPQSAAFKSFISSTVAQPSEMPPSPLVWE
# run_parameters: at 1 µM
The threshold is 90%. Values of residual activity beneath it are tagged Fulfilled; values meeting or exceeding it are tagged Not fulfilled.

# example entries with known answers
smiles_entry | group
COc1ccc(OC)c2c(=S)c3ccccc3[nH]c12 | Fulfilled
Oc1c2ccccc2c2c3c(cccc13)N=N2 | Fulfilled
Cn1cnc2cc3c(Nc4cccc(Br)c4)ncnc3cc21 | Not fulfilled
Cc1ccc(NC2=CC(=O)c3sc(C)nc3C2=O)cc1 | Fulfilled
O=C1Nc2cc(Br)ccc2/C1=C1/Nc2ccccc2/C1=N\O | Fulfilled
O=C1NC(=O)/C(=C/c2ccc3c(c2)OC(F)(F)O3)S1 | Not fulfilled
Cc1cc2ncc(-c3ccccc3)nc2cc1C | Not fulfilled
Oc1ccc(-c2nc(-c3ccc(F)cc3)c(-c3ccncc3)[nH]2)cc1 | Fulfilled

INPUT: Lab note: residual activity threshold 90%. Does this molecule come in strictly under it? CCOc1cc2ncnc(Nc3cccc(Br)c3)c2cc1OCC
OUTPUT: Fulfilled

INPUT: Lab note: residual activity threshold 90%. Does this molecule come in strictly under it? CCN(CC)CCCCN1c2ccccc2Oc2ccc(Cl)cc21
OUTPUT: Not fulfilled

INPUT: Lab note: residual activity threshold 90%. Does this molecule come in strictly under it? Oc1ccc(Nc2nc(-c3ccc(Cl)cc3)cs2)cc1
OUTPUT: Not fulfilled
